Entry source: patent US9266904B2

Experiment: Lyophilisation solubility assay (Lysa)
Format: physicochemical
Details: pH 6.5, aqueous buffer, thermodynamic from solid
I'd be grateful if you could share measured solubility thermodynamic for these entries.
Give the quantity in µg/mL, number only.

Documented solubility thermodynamic of CCOC(=O)C1=C(CN2C3COCC2CC(CC(=O)O)C3)NC(c2nccs2)=N[C@H]1c1ccc(F)cc1Cl (stereo partly drawn) : 470

Documented solubility thermodynamic of COC(=O)C1=C(CN2[C@@H]3C[C@H](CC(=O)O)C[C@H]2C(F)(F)C3)NC(c2nccs2)=N[C@H]1c1cccc(F)c1Cl : 120

Documented solubility thermodynamic of COC(=O)C1=C(CN2C3COCC2CC(C(=O)O)C3)NC(c2nccs2)=N[C@H]1c1ccc(F)cc1Cl (stereo partly drawn) : 540

Documented solubility thermodynamic of COC(=O)C1=C(CN2[C@@H]3C[C@H](CC(=O)O)C[C@H]2C(F)(F)C3)NC(c2nccs2)=N[C@H]1c1ccccc1Cl : 230

* * *

Test system: CYP3A4
Conditions: human, 24 h
Assay Endpoint: % of Positive control (10 μM Rifampicin) (%)
Give the quantity in %, number only.

Documented % of Positive control (10 μM Rifampicin) of COC(=O)C1=C(CN2C3COCC2c2cn[nH]c2C3)NC(c2nccs2)=N[C@H]1c1ccc(F)cc1Cl (stereo partly drawn) : 25

Documented % of Positive control (10 μM Rifampicin) of CCOC(=O)C1=C(CN2[C@@H]3COC[C@H]2C[C@H](CC(=O)O)C3)NC(c2nccs2)=N[C@H]1c1ccc(F)c(F)c1Br : 35

Documented % of Positive control (10 μM Rifampicin) of COC(=O)C1=C(CN2[C@@H]3C[C@H](CC(=O)O)C[C@H]2C(F)(F)C3)NC(c2nccs2)=N[C@H]1c1cccc(F)c1Cl : 39

Documented % of Positive control (10 μM Rifampicin) of CCOC(=O)C1=C(CN2[C@@H]3COC[C@H]2C[C@H](CC(=O)O)C3)NC(c2nccs2)=N[C@H]1c1cccc(F)c1Cl : 6.2

Documented % of Positive control (10 μM Rifampicin) of COC(=O)C1=C(CN2[C@@H]3COC[C@H]2C[C@@H](NS(N)(=O)=O)C3)NC(c2nccs2)=N[C@H]1c1ccc(F)cc1Cl : 23

Documented % of Positive control (10 μM Rifampicin) of COC(=O)C1=C(CN2[C@@H]3COC[C@H]2C[C@H](CC(=O)O)C3)NC(c2nccs2)=N[C@H]1c1ccc(F)c(F)c1Cl : 21

* * *

Test: Lyophilisation solubility assay (Lysa)
Type: physicochemical
Conditions: pH 6.5, aqueous buffer, thermodynamic from solid
Procedure: The aqueous solubility is an important physico-chemical property that plays a significant role in various physical and biological processes. […] Samples are prepared in duplicate from 10 mM DMSO stock solutions. […] After one night, the solution is filtered using a microtiter filter plate and then the filtrate and its 1/10 dilution are then analyzed by direct UV measurement or by HPLC-UV. […]
Assay Endpoint: solubility thermodynamic (µg/mL)
Give the quantity in µg/mL, number only.

Documented solubility thermodynamic of CCOC(=O)C1=C(CN2[C@@H]3COC[C@H]2[C@H](F)[C@@H](CC(=O)O)C3)NC(c2nccs2)=N[C@H]1c1ccccc1Cl : 410

Documented solubility thermodynamic of CCOC(=O)C1=C(CN2[C@@H]3COC[C@H]2C[C@H](CC(=O)O)C3)NC(c2nccs2)=N[C@H]1c1ccc(F)c(F)c1C : 111

Documented solubility thermodynamic of COC(=O)C1=C(CN2C3COCC2CC(CC(=O)O)C3)NC(c2nccs2)=N[C@H]1c1ccc(Cl)c(F)c1 (stereo partly shown) : 485

Documented solubility thermodynamic of COC(=O)C1=C(CN2[C@H]3C[C@@H](CC(=O)O)C[C@@H]2C(F)(F)C3)NC(c2nccs2)=N[C@H]1c1ccc(F)c(F)c1 : 128

Documented solubility thermodynamic of COC(=O)C1=C(CN2C3COCC2CC(C(=O)O)C3)NC(c2nc(C)cs2)=N[C@H]1c1ccc(F)cc1Cl (stereo partly shown) : 450

Documented solubility thermodynamic of COC(=O)C1=C(CN2[C@@H]3C[C@H](CC(=O)O)C[C@H]2C(F)(F)C3)NC(c2nccs2)=N[C@H]1c1ccc(F)cc1Cl : 149

Documented solubility thermodynamic of COC(=O)C1=C(CN2[C@@H]3COC[C@H]2C[C@@H](CC(=O)O)C3)NC(c2nccs2)=N[C@H]1c1cccc(F)c1Cl : 505
